target: Solute carrier family 12 member 5 (Homo sapiens, UniProt Q9H2X9); test: concentration-response of KCC2 transport modulators – cell-based, HEK293 KCC2, FluoZin-2 fluorescence, dose response (AID 1736)
Sequence (Q9H2X9 whole entry): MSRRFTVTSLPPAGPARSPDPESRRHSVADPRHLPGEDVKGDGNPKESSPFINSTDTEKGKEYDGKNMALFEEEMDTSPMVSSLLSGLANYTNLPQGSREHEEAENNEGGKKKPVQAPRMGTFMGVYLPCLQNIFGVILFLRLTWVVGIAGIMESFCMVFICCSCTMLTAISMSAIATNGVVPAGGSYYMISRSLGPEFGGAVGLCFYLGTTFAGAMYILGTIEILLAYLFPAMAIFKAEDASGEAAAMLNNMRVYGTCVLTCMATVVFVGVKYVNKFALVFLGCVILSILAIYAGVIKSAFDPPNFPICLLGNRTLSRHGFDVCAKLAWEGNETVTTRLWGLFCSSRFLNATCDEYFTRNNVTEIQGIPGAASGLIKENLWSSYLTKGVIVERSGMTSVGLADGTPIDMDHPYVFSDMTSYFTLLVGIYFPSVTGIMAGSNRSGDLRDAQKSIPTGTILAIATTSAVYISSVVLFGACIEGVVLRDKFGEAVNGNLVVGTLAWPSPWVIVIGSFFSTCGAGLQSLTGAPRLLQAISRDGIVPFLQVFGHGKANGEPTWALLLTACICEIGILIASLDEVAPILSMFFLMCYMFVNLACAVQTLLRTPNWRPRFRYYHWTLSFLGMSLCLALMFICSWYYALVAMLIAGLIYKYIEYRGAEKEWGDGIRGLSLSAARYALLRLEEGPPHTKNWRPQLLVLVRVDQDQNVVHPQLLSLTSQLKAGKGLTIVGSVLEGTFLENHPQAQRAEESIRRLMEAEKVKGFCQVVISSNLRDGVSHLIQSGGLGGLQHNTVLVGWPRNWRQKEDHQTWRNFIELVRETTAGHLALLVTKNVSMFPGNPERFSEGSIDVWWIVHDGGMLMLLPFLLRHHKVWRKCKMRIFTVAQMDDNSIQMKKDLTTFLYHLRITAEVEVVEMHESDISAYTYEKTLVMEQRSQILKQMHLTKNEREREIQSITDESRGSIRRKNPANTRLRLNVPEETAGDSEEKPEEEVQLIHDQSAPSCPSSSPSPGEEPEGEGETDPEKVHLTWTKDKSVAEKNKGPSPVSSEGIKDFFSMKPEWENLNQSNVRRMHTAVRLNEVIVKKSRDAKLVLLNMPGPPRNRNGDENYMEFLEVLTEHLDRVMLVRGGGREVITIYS
Measure: EC50 (µM)

>>> assay_result("Cc1ccc(OCCC(=O)OCC(=O)N2c3ccccc3CC2C)cc1 (centres undefined)")
4.4
>>> assay_result("CC1CCCCN1C(=O)CSc1nnc(-c2c[nH]c3ccccc23)o1 (centres undefined)")
10.7
>>> assay_result("Cc1ccccc1OCC(=O)NNC(=O)CCN1C(=O)c2ccccc2C1=O")
14.8
>>> assay_result("CS(=O)(=O)N(CC(=O)N1CCN(c2ccc(F)cc2)CC1)c1ccc(F)c(Cl)c1 [MLS000531433]")
7.63
>>> assay_result("Cn1c(C(=O)NCCCN2CCN(c3ccccc3F)CC2)cc2c(=O)n(C)c3ccccc3c21 [MLS000118127]")
7.12
>>> assay_result("S=C(NCCc1ccccc1)NN=Cc1cccc(Cl)c1Cl")
7.78
>>> assay_result("O=S(=O)(NCCc1ccccc1F)c1cccc(S(=O)(=O)N2CCOCC2)c1 [MLS000076090]")
4040
>>> assay_result("O=C(C=Cc1ccccc1)CC(=O)c1ccccc1O [MLS000627068]")
12.4
>>> assay_result("Cc1ccc(Cn2nnc3c(=O)[nH]c(C4CCN(S(=O)(=O)c5ccc(F)cc5)CC4)nc32)cc1")
11.1
